- System: Echinocloa crus-galli
- experiment: greenhouse pre-emergence herbicidal test
- Type: in vivo
- condition.description: 31 g/ha
attribute.measured: herbicidal activity (%)
Kindly provide the numeric value in % only, without the unit symbol.

Fill blank: measured herbicidal activity of the compound CC#CCOc1c(F)cc(C)c(Cl)c1Nc1nc(N)nc(C(C)(C)F)n1 [Example 57] is ____.
100

Fill blank: measured herbicidal activity of the compound COc1c(Br)cc(C)c(C)c1Nc1nc(N)nc(C(C)(C)OC)n1 [Example 48] is ____.
70

Fill blank: measured herbicidal activity of the compound COc1c(Br)ccc(C)c1Nc1nc(N)nc(C(C)(C)F)n1 [Example 62] is ____.
100

Fill blank: measured herbicidal activity of the compound COc1c(Br)cc(F)c(Cl)c1Nc1nc(N)nc(C2(F)CC2)n1 [Example 42] is ____.
100

Fill blank: measured herbicidal activity of the compound COc1c(F)cc(F)c(Br)c1Nc1nc(N)nc(C(C)(C)F)n1 [Example 13] is ____.
100

Fill blank: measured herbicidal activity of the compound COc1c(Cl)cc(Br)c(C)c1Nc1nc(N)nc(C2(F)CCCC2)n1 [Example 61] is ____.
100

###

- Tested on: Abutilon theophrasti
- experiment: greenhouse pre-emergence herbicidal test
- Format: in vivo
- condition.description: 62.5 g/ha
attribute.measured: herbicidal activity

Fill blank: measured herbicidal activity of the compound COc1c(F)ccc(Br)c1Nc1nc(N)nc(C(C)(C)F)n1 is ____.
100%

Fill blank: measured herbicidal activity of the compound COc1c(Cl)cc(Cl)c(C)c1Nc1nc(N)nc(C2(F)CC2)n1 is ____.
80%

Fill blank: measured herbicidal activity of the compound CC#CCOc1c(Br)cc(F)c(Cl)c1Nc1nc(N)nc(C(C)(C)F)n1 is ____.
100%

Fill blank: measured herbicidal activity of the compound COc1c(F)cc(C)c(Cl)c1Nc1nc(N)nc(C(C)(C)F)n1 is ____.
100%

Fill blank: measured herbicidal activity of the compound COc1c(F)ccc(Cl)c1Nc1nc(N)nc(C(C)(C)F)n1 is ____.
100%

Fill blank: measured herbicidal activity of the compound COc1c(Cl)cc(Cl)c(C)c1Nc1nc(N)nc(C(F)(F)F)n1 is ____.
100%

Fill blank: measured herbicidal activity of the compound COc1c(Cl)ccc(Cl)c1Nc1nc(N)nc(C(C)(C)F)n1 is ____.
100%

Fill blank: measured herbicidal activity of the compound COc1c(Cl)cc(Cl)c(Cl)c1Nc1nc(N)nc(C(C)(C)F)n1 is ____.
100%

Fill blank: measured herbicidal activity of the compound COc1c(Cl)cc(Cl)c(C)c1Nc1nc(N)nc(C(C)(C)OC)n1 is ____.
98%

Fill blank: measured herbicidal activity of the compound COc1c(C)ccc(C)c1Nc1nc(N)nc(C(C)F)n1 (centres unmarked) is ____.
100%

Fill blank: measured herbicidal activity of the compound C#CCOc1c(F)cc(C)c(Cl)c1Nc1nc(N)nc(C(C)(C)F)n1 is ____.
90%

###

- System: Abutilon theophrasti
- experiment: greenhouse pre-emergence herbicidal test
- Assay type: in vivo
- condition.description: 31 g/ha
I'd appreciate it if you could supply herbicidal activity values for the items below.
Kindly provide the numeric value in % only, without the unit symbol.

Fill blank: measured herbicidal activity of the compound CCOc1c(Br)cc(F)c(Cl)c1Nc1nc(N)nc(C(C)(C)F)n1 is ____.
100

Fill blank: measured herbicidal activity of the compound COc1c(Cl)cc(Br)c(C)c1Nc1nc(N)nc(C2(F)CCCC2)n1 is ____.
100

Fill blank: measured herbicidal activity of the compound C#CCOc1c(F)ccc(Cl)c1Nc1nc(N)nc(C(C)(C)F)n1 is ____.
80

Fill blank: measured herbicidal activity of the compound C#CCOc1c(Br)cc(F)c(Cl)c1Nc1nc(N)nc(C(C)(C)F)n1 is ____.
100

Fill blank: measured herbicidal activity of the compound CC#CCOc1c(F)cc(C)c(Cl)c1Nc1nc(N)nc(C(C)(C)F)n1 is ____.
98

Fill blank: measured herbicidal activity of the compound COc1c(Br)cc(F)c(Cl)c1Nc1nc(N)nc(C(C)(C)F)n1 is ____.
100

Fill blank: measured herbicidal activity of the compound COc1c(F)cc(F)c(Br)c1Nc1nc(N)nc(C(C)(C)F)n1 is ____.
100

###

- Tested on: Setaria faberi
- experiment: greenhouse pre-emergence herbicidal test
- Assay type: in vivo
- condition.description: 31 g/ha
I'd appreciate it if you could supply herbicidal activity values for the items below.
Kindly provide the numeric value in % only, without the unit symbol.

# query: herbicidal activity | item COc1c(Br)cc(F)c(Cl)c1Nc1nc(N)nc(C2(F)CC2)n1 | system: Setaria faberi
100

# query: herbicidal activity | item COc1c(Cl)cc(C)c(Cl)c1Nc1nc(N)nc(C(C)(C)F)n1 | system: Setaria faberi
100

# query: herbicidal activity | item COc1c(Cl)cc(Br)c(C)c1Nc1nc(N)nc(C(C)(C)F)n1 | system: Setaria faberi
98
